pKi: −log10 of the molar value.
The following molecules have recorded pKi on human a-thrombin (Homo sapiens).

Some molecules with recorded pKi:
{"Molecule": "CS(=O)(=O)CC[C@H](NS(=O)(=O)Cc1ccccc1)C(=O)N[C@H](CCNc1ccncc1)Cc1ccccc1 [Bn 1 BnSO2 -- (S)- CH2 CH2 SO2 CH3]", "Quantity Name": "pKi", "Result": "> 6.00"}
{"Molecule": "NC(Cc1ccc(Cl)cc1)C(=O)N[C@H](CCNc1ccncc1)Cc1ccccc1 (stereo partly shown) [Bn 1 H 4-ClBn--]", "Quantity Name": "pKi", "Result": "> 6.00"}
{"Molecule": "O=C(CNS(=O)(=O)Cc1ccc(C(F)(F)F)cc1)N[C@H](CCNc1ccncc1)Cc1ccccc1 [Bn 1 4-CF3 --BnSO2 -- H]", "Quantity Name": "pKi", "Result": "> 6.00"}

IN: Param item = C[C@H](NS(=O)(=O)Cc1ccccc1)C(=O)N[C@H](CCNc1ccncc1)Cc1ccccc1 [Bn 1 BnSO2 -- (S)-CH3] ; retrieve measured pKi.
OUT: > 6.00

IN: Param item = CC(C)[C@@H](CCNc1ccncc1)NC(=O)CNS(=O)(=O)Cc1ccccc1 [(CH3)2 CH2 -- 1 BnSO2 -- H] ; retrieve measured pKi.
OUT: < 6.00

IN: Param item = O=C(CNS(=O)(=O)c1ccc(Cl)c(Cl)c1)N[C@H](CCNc1ccncc1)Cc1ccccc1 [Bn 1 3,4-di-Cl--PhSO2 -- H] ; retrieve measured pKi.
OUT: > 6.00

IN: Param item = C[C@@H](NS(=O)(=O)Cc1ccccc1)C(=O)N[C@H](CCNc1ccncc1)Cc1ccccc1 [Bn 1 BnSO2 -- (R)-CH3] ; retrieve measured pKi.
OUT: < 6.00
